The values you see were collected from the Deep4Chem optical property database.

PROCEDURE_SUMMARY: solvent given as SMILES
PROTOCOL_CONDITIONS: in ClCCl
READOUT_TYPE: absorption maximum

Recorded results for 2 compounds are shown here.
CHEMICAL_STRUCTURE	READOUT_TYPE	RESULT_VALUE
COc1ccc(C#Cc2ccc3nc4ccc(C#Cc5ccc(OC)cc5)cn4c(=O)c3c2)cc1	absorption maximum	385 nm
COc1ccc(N(c2ccc(OC)cc2)c2ccc(-c3ccc(-c4ccc5nc6ccccc6c(=O)n5c4)cc3)cc2)cc1	absorption maximum	367 nm

The record that follows has no absorption maximum shown yet.
query: So what does the record say about absorption maximum for `C(=C\c1nc(/C=C/c2ccc(N(c3ccccc3)c3ccccc3)cc2)cc(/C=C/c2ccc(N(c3ccccc3)c3ccccc3)cc2)n1)/c1ccccc1` ?
result: 430 nm

---

absorption maximum: recorded values
PROCEDURE_SUMMARY: solvent given as SMILES
PROTOCOL_CONDITIONS: in ClC(Cl)Cl
Express your answer in nm, writing the number without its unit.

Worked examples, 9 compounds total:
CHEMICAL_STRUCTURE	UNIT_TAG	absorption maximum
CCCCCCn1c2ccccc2c2cc3c4cc5c6ccccc6n(CCCCCC)c5cc4c4cc5c(C)cc(=O)oc5cc4c3cc21	nm	393
CCCCn1c2ccccc2c2ccc3c4cc(-c5ccc(C(F)(F)F)cc5)ccc4n(CCCC)c3c21	nm	326
COc1cc2c(cc1/C=C/C1=CC(=C(C#N)C#N)CC(C)(C)C1)c1ccccc1n2C	nm	485
CN(C)c1ccc(/C=C/c2cc[n+](C)cc2)cc1	nm	500
CC1=C(Br)C(/C=C/c2ccncc2)=[N+]2C1=C(c1ccccc1)c1c(C)c(Br)c(/C=C/c3ccncc3)n1[B-]2(F)F	nm	620
N#Cc1ccc(C#Cc2ccc(C#Cc3ccc(C#Cc4ccccc4C#N)cc3C#N)cc2C#N)cc1	nm	357
CCC1=C(C)C(=O)n2c1cc1c(C)cc(C)n1c2=O	nm	420
C[Si]1(C)O[Si](C)(C)c2cc3cc4cc5c(cc4cc3cc21)C(=O)c1cc2cc3cc4c(cc3cc2cc1C5=O)[Si](C)(C)O[Si]4(C)C	nm	470
Cc1cc(O)c(C(C)C)cc1/N=C/c1ccc(C(F)(F)F)cc1	nm	344

query: What value of absorption maximum has been recorded for this entry: `O=C1OC(=O)[C@H]2[C@@H]1[C@@H]1C[C@H]2c2c1c(-c1ccccc1)c1ccccc1c2-c1ccccc1`
result: 295

---

PROCEDURE_SUMMARY: solvent given as SMILES
PROTOCOL_CONDITIONS: in ClCCl
READOUT_TYPE: absorption maximum (nm)
A number alone suffices; assume nm.

COMPOUND	UNIT_TAG	RESULT_VALUE
CCN(CC)c1ccc2cc(-c3csc(N)c3C#N)c(=O)oc2c1	nm	407

query: Return reported absorption maximum; argument: `COc1cc2cc(OC)c(-c3ccc([N+](=O)[O-])cc3)cc2cc1-c1ccc([N+](=O)[O-])cc1`
result: 337

query: Entry `CN(C)c1ccc(-c2nc3c(c4c2-c2ccc(C#N)cc2CC4)-c2ccc(C#N)cc2CC3)cc1` please
result: 342

query: // next record `c1ccc2c(c1)[nH]c1c3[nH]c4ccccc4c3c3nsnc3c21`
result: 410

query: Another compound: `CC1(C)CC(/C=C/c2ccc(-n3cccn3)cc2)=CC(=C(C#N)C#N)C1`
result: 404

query: Input `O=[N+]([O-])c1ccc([N+]2=Cc3ccc4c5c(ccc4c3O[B-]2(c2c(F)c(F)c(F)c(F)c2F)c2c(F)c(F)c(F)c(F)c2F)C=[N+](c2ccc([N+](=O)[O-])cc2)[B-](c2c(F)c(F)c(F)c(F)c2F)(c2c(F)c(F)c(F)c(F)c2F)O5)cc1`
result: 553

query: Please give the result for `Cc1c(C)c(-c2cccnc2)c(C)c(C)c1B(c1c(C)c(C)c(-c2cccnc2)c(C)c1C)c1c(C)c(C)c(-c2cccnc2)c(C)c1C` too.
result: 330

query: Param item: `CCN1c2ccc(C3=CC(c4ccccc4)=[O+][B-](F)(F)O3)cc2Sc2cc(C3=CC(c4ccccc4)=[O+][B-](F)(F)O3)ccc21`
result: 525

query: Continue with `COc1cc2c(cc1/C=C(\C#N)c1nc3ccccc3s1)c1ccccc1n2C`
result: 435

query: Another: `CCCCn1c2c(-c3ccc(N(c4ccccc4)c4ccccc4)cc3)cc(C#N)cc2c2cc(C#N)cc(-c3ccc(N(c4ccccc4)c4ccccc4)cc3)c21`
result: 351

---

PROCEDURE_SUMMARY: solvent given as SMILES
PROTOCOL_CONDITIONS: in c1ccccc1
Tick Yes if absorption maximum is 400 nm or greater. Tick No if absorption maximum is less than 400 nm.

COMPOUND	DISCRETE_LABEL
O=C(c1ccc(N(c2ccccc2)c2ccccc2)cc1)[C@H]1[C@H](c2cccs2)C[C@](O)(c2ccccn2)C[C@]1(O)c1ccccn1	No
Cc1nc2c(ccc3ccc(O)cc32)oc1=O	No
CCOC(=O)CSc1nc2c(c(C#N)c1C#N)CCCCCC2	No
N#Cc1ccc(C#Cc2ccc(C#Cc3ccc(C#Cc4ccccc4C#N)cc3C#N)cc2C#N)cc1	No
CCCCCCCCCCCCCCCCN(CCCCCCCCCCCCCCCC)c1ccc(/C=C/c2cc[n+](Cc3cc(C[n+]4ccc(/C=C/c5ccc(N(CCCCCCCCCCCCCCCC)CCCCCCCCCCCCCCCC)cc5)cc4)cc(C[n+]4ccc(/C=C/c5ccc(N(CCCCCCCCCCCCCCCC)CCCCCCCCCCCCCCCC)cc5)cc4)c3)cc2)cc1	Yes

query: Would you say `CC(C)(C)c1ccc2oc(-c3ccc(-c4nc5cc(C(C)(C)C)ccc5o4)s3)nc2c1` shows absorption maximum at minimum 400 nm?
result: No

query: Try `CC1(C)CCc2c(c3ccccc3c3nc4c(nc23)c2c(c3ccccc34)OC(C)(C)CC2)O1` next.
result: Yes

query: Similarly, CC(C)(C)C1Nc2c(Br)cc(Br)cc2C(=O)N1Cc1ccccc1 (stereo unspecified) ?
result: No

query: Repeat for the following compound: `CN(C)c1ccc2ccc3oc(=O)c(-c4ccccc4)nc3c2c1`
result: Yes

query: How about COC(=O)C(Cc1ccc2oc(-c3ccc(N(C)C)cc3)nc2c1)NC(=O)OC(C)(C)C (stereo unspecified) ?
result: No

query: What do you have for `Cc1cc(C(F)(F)F)nc2c1ccc1nc(-c3ccc(Cl)cc3)cn12` ?
result: No

query: Similarly, `CC(C)[Si]1(C(C)C)c2cc(C=C(C#N)C#N)ccc2-c2ccc(N(C)C)cc21` ?
result: Yes

---

PROCEDURE_SUMMARY: solvent given as SMILES
PROTOCOL_CONDITIONS: in ClCCl
The threshold is 400 nm. Values of absorption maximum beneath it are tagged met; values meeting or exceeding it are tagged not met.

Solved cases below.
MOLECULE	DISCRETE_LABEL
Fc1ccc(-c2nc3n(c2-c2ccncc2)CCS3)cc1	met
CCCCN(CCCC)c1ccc(/C=C/c2ccc3nc(/C=C/c4ccc(N(C)C)cc4)c(=O)n(CCC)c3c2)cc1	not met
COc1ccc2c(c1)CCc1c-2nc(N)c(C#N)c1-c1ccc(Br)cc1	met
CCCCCC(CC)C1(C(CC)CCCCC)c2ccccc2-c2ccc(C#Cc3cc(C#Cc4ccc5c(c4)C(C(CC)CCCCC)(C(CC)CCCCC)c4ccccc4-5)c4ccc5c(C#Cc6ccc7c(c6)C(C(CC)CCCCC)(C(CC)CCCCC)c6ccccc6-7)cc(C#Cc6ccc7c(c6)C(C(CC)CCCCC)(C(CC)CCCCC)c6ccccc6-7)c6ccc3c4c65)cc21 (stereo not given)	not met
FC(F)(F)c1ccc(C#Cc2cc(C#Cc3ccc(C(F)(F)F)cc3)c3ccc4c(C#Cc5ccc(C(F)(F)F)cc5)cc(C#Cc5ccc(C(F)(F)F)cc5)c5ccc2c3c54)cc1	not met

query: Could you please tell me whether absorption maximum recorded for `c1ccc2c(c1)OP1(=NP(Oc3ccc4ccc5cccc6ccc3c4c56)(Oc3ccc4ccc5cccc6ccc3c4c56)=NP(Oc3ccc4ccc5cccc6ccc3c4c56)(Oc3ccc4ccc5cccc6ccc3c4c56)=N1)Oc1ccccc1-2` is less than 400 nm?
result: met

query: Likewise for `CC(C)[Si](C#Cc1c2cc3ccccc3cc2c(C#Cc2ccc(Br)cc2)c2cc3ccccc3cc12)(C(C)C)C(C)C` ?
result: not met

query: Another molecule: `O=Cc1ccc(-c2ccc(-c3nc4ccccc4s3)c(O)c2)o1`
result: met

query: Queued: `Clc1nnc(Oc2ccc(N(c3ccccc3)c3ccccc3)cc2)nn1`
result: not met

query: Thanks! And O=S1(=O)C2=C(c3ccccc31)C1(c3ccccc32)c2ccccc2-c2sc3ccccc3c21 (stereo not given) ?
result: met

query: Same for `CC1=C(C2=C(C)C(C)=[N+]3C2=Cc2cc(C)c(C)n2[B-]3(F)F)C2=Cc3cc(C)c(C)n3[B-](F)(F)[N+]2=C1C`
result: not met
